experimental-target: V1a (Homo sapiens, UniProt P37288)
Sequence (P37288 whole entry): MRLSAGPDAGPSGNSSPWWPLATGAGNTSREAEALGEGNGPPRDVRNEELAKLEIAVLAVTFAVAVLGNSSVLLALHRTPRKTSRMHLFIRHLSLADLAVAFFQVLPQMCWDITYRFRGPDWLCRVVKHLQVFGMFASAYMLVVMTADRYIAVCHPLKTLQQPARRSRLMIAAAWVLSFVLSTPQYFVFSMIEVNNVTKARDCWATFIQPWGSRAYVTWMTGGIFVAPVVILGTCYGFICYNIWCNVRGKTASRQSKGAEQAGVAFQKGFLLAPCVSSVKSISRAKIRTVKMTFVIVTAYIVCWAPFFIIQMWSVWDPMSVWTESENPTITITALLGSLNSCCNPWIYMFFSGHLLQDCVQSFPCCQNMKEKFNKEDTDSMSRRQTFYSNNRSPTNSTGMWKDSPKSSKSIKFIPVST
protocol-summary: V1a vasopressin receptor functional activity (inhibition of vasopressin-induced intracellular calcium, FLIPR, V1a-HEK cells)
Assay type: cell-based
Set-up: expressed in transfected cells
cond: HEK-293 cells transfected with human V1a receptor; vasopressin challenge
Under this convention, 1 denotes IC50 strictly below 0.05 µM and -1 denotes IC50 at or above 0.05 µM.

// known answers, use as guide
molecule	cat
O=C(Nc1ccc(C(=O)N2CCC3(C=C(CO)CC3)Cc3ccccc32)cc1)c1ccccc1-c1ccccc1 (centres unmarked)	1
O=C(NCCO)C1=CC2(CC1)CCN(C(=O)c1ccc(NC(=O)c3ccccc3F)cc1)c1ccccc1C2 (centres unmarked)	-1
CN(C)CCNC(=O)C1=CC2(CC1)CCN(C(=O)c1ccc(NC(=O)c3ccccc3-c3ccccc3)cc1)c1ccccc1C2 (centres unmarked) [Compound 9]	1
O=C(O)C1=CC2(CC1)CCN(C(=O)c1ccc(NC(=O)c3ccccc3-c3ccccc3)cc1)c1ccccc1C2 (centres unmarked)	1
Cc1cc(F)ccc1C(=O)Nc1ccc(C(=O)N2CCC3(C=CCCC3)Cc3ccccc32)cc1 (centres unmarked) [Compound 99]	-1

Lookup: Bench note: check whether O=C(NCCN1CCCC1)C1=CC2(CC1)CCN(C(=O)c1ccc(NC(=O)c3ccccc3F)cc1)c1ccccc1C2 (centres unmarked) shows IC50 below 0.05 µM
Found: -1

Lookup: Would you mind doing O=C(NCCO)C1=CC2(CC1)CCN(C(=O)c1ccc(NC(=O)c3ccccc3-c3ccccc3)cc1)c1ccccc1C2 (centres unmarked) as well?
Found: 1

Lookup: Here is the next molecule: O=C(Nc1ccc(C(=O)N2CCC3(C=CCCC3)Cc3ccccc32)cc1)c1ccccc1F (centres unmarked)
Found: -1

Lookup: Okay, and N#Cc1ccc(C(=O)N2CCC3(C=CCCC3)Cc3ccccc32)cc1 (centres unmarked) ?
Found: -1

Lookup: Check Cc1ccccc1C(=O)Nc1ccc(C(=O)N2CCC3(C=CCCC3)Cc3ccccc32)cc1 (centres unmarked) too.
Found: -1

Lookup: // next record O=C(Nc1ccc(C(=O)N2CCC3(C=CCCC3)Cc3ccccc32)c(Cl)c1)c1ccccc1F (centres unmarked)
Found: -1

Lookup: Note, next up: COC(=O)CNCC1=CC2(CC1)CCN(C(=O)c1ccc(NC(=O)c3cc(F)ccc3C)cc1)c1ccccc1C2 (centres unmarked)
Found: -1

Lookup: Request: O=C(Nc1ccc(C(=O)N2CCC3(C=CCCC3)Cc3ccccc32)cc1)c1ccccc1-c1ccccc1 (centres unmarked)
Found: 1

----------
Each entry below carries its recorded Receptor Binding V2 (% Inh. @ concentration in μM).
experimental-target: human V2 receptor (Homo sapiens, UniProt P30518)
Sequence (P30518 whole entry): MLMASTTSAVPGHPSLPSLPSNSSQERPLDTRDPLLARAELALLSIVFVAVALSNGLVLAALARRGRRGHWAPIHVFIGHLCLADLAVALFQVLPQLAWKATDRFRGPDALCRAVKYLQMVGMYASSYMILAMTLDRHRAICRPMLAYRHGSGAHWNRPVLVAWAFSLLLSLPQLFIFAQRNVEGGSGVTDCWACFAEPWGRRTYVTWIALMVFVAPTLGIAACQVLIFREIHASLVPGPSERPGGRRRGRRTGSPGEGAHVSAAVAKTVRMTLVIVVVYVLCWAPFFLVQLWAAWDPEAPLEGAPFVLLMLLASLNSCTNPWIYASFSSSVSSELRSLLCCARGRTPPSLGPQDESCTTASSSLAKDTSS
protocol-summary: In-vitro receptor binding assay (3H-arginine-8-vasopressin), V2
cond: @ 1 μM
Give just the numeric value; % @ 1 need not be written.

Field: example entries. Status: answers known.
compound	recorded-value
CN(C)c1ccc(C(=O)N2CCC3(C=CCCC3)Cc3ccccc32)cc1 (stereo not shown) [Compound 60]	14
CN(C)CCNC(=O)C1=CC2(CC1)CCN(C(=O)c1ccc(N)cc1)c1ccccc1C2 (stereo not shown) [Compound 191]	15
Nc1ccc(C(=O)Nc2ccc(C(=O)N3CCC4(C=CCCC4)Cc4ccccc43)cc2)cc1 (stereo not shown) [Compound 70]	21

Shift focus to the following entry.
Lookup: Give the measured Receptor Binding V2 (% Inh. @ concentration in μM) of C[S+]([O-])c1ccc(C(=O)Nc2ccc(C(=O)N3CCC4(C=CCCC4)Cc4ccccc43)cc2)cc1 (stereo not shown) [Compound 95] .
Found: 0

----------
experimental-target: human V2 receptor (Homo sapiens)
protocol-summary: In-vitro receptor binding assay (3H-arginine-8-vasopressin), V2
cond: @ 1 μM; read-out: Receptor Binding V2 (% Inh. @ concentration in μM)
Description: (A) In-Vitro Binding Assay […] The reaction plates are allowed to sit at room temperature for one hour. The samples are filtered through Unifilter GF/C plates (presoaked in 0.3 polyethyleneimine). The plates are washed 5 times with cold physiological saline containing 0.05% Tween 20. […] The top of the plate is sealed, and the plate is counted. Non-specific binding is determined by the addition of 1.25 μM […]-vasopressin in those wells. % Inh. is calculated as follows: […]
Categories are defined by ranges of inhibition at 1 µM, namely Low = under 10%, Mid = from 10% up to 20%, High = 20% and over

Take a look at these entries with their results.
molecule	experimental-target	cat
COC(=O)CN1CCC(Oc2ccc(C(=O)N3CCC4(C=CCCC4)Cc4ccccc43)cc2F)CC1 (stereo not shown) [Compound 169]	human V2 receptor (Homo sapiens)	Low
O=Cc1ccn(-c2ccc(C(=O)N3CCC4(C=CCCC4)Cc4ccccc43)cc2)c1 (stereo not shown) [Compound 152]	human V2 receptor (Homo sapiens)	Mid
O=C(Nc1ccccc1)c1ccc(C(=O)N2CCC3(C=CCCC3)Cc3ccccc32)cc1 (stereo not shown) [Compound 82]	human V2 receptor (Homo sapiens)	High

Lookup: Which class holds COc1cc(C(=O)N2CCC3(C=C(C(=O)NCCN(C)C)CC3)Cc3ccccc32)ccc1-n1ccc(C=O)c1 (stereo not shown) [Compound 189] ?
Found: Mid

Lookup: # repeat for COc1cc(-n2ccc(C=O)c2)ccc1C(=O)N1CCC2(C=C(C(=O)NCCN(C)C)CC2)Cc2ccccc21 (stereo not shown) [Compound 195]
Found: Mid

----------
Measured IC50 values are reported for all entries that follow.
experimental-target: UniProt P30518
protocol-summary: In-vitro receptor binding assay (3H-arginine-8-vasopressin), V2
# unit: µM | format: bare number

Known IC50 results, listed for orientation:
compound	readout-unit	IC50
Cc1ccc(F)cc1C(=O)Nc1ccc(C(=O)N2CCC3(C=C(CN4CCN(CCN5CCOCC5)CC4)CC3)Cc3ccccc32)c(Cl)c1 (stereo not shown)	µM	0.056
Cc1ccccc1C(=O)Nc1ccc(C(=O)N2CCC3(C=CCCC3)Cc3ccccc32)cc1 (stereo not shown)	µM	0.07
O=C(Nc1ccc(C(=O)N2CCC3(C=CCCC3)Cc3ccccc32)cc1)c1ccccc1F (single isomer, unassigned) [Compound 109]	µM	0.3

Lookup: Which measured IC50 value corresponds to CCCCOc1ccc(C(=O)N2CCC3(C=CCCC3)Cc3ccccc32)cc1 (stereo not shown) ?
Found: 8

Lookup: // query: O=C(Nc1ccccc1)c1ccc(C(=O)N2CCCC3(C=CCCC3)c3ccccc32)cc1 (stereo not shown)
Found: 0.27

----------
Overview of reported IC50 across a group of compounds:
experimental-target: UniProt P37288
protocol-summary: V1a vasopressin receptor functional activity (inhibition of vasopressin-induced intracellular calcium, FLIPR, V1a-HEK cells)
Type: cell-based
Parameters: expressed in transfected cells
cond: HEK-293 cells transfected with human V1a receptor; vasopressin challenge
# unit: µM | format: bare number

Some compounds with known IC50 results, for comparison:
compound	readout-unit	recorded-value
CN(C)CCNC(=O)C1=CC2(CC1)CCN(C(=O)c1ccc(NC(=O)c3ccccc3F)cc1)c1ccccc1C2 (stereo not drawn)	µM	0.126
Cc1ccc(F)cc1C(=O)Nc1ccc(C(=O)N2CCC3(C=C(C(=O)NCCN(C)C)CC3)Cc3ccccc32)cc1 (stereo not drawn)	µM	0.07
CCNc1ccc(C(=O)N2CCC3(CCCCC3)Cc3ccccc32)cc1	µM	0.105
O=C(NCCN1CCOCC1)C1=CC2(CC1)CCN(C(=O)c1ccc(NC(=O)c3ccccc3F)cc1)c1ccccc1C2 (stereo not drawn)	µM	0.227
O=C(Nc1ccccc1)c1ccc(C(=O)N2CCCC3(C=CCCC3)c3ccccc32)cc1 (stereo not drawn)	µM	0.008

Lookup: Find the recorded IC50 belonging to CN(C)CCNC(=O)C1=CC2(CC1)CCN(C(=O)c1ccc(NC(=O)c3ccccc3-c3ccccc3)cc1)c1ccccc1C2 (single isomer, unassigned) [Compound 21] and report it.
Found: 0.008

Lookup: Same lookup for Cc1ccc(F)cc1C(=O)Nc1ccc(C(=O)N2CCC3(C=C(C(=O)NCCCN(C)C)CC3)Cc3ccccc32)cc1 (stereo not drawn) , please.
Found: 0.059

Lookup: Same question for COC(=O)c1ccc(C(=O)N2CCC3(C=CCCC3)Cc3ccccc32)cc1 (stereo not drawn) please.
Found: 0.067

Lookup: And the next one, CN(C)CCNC(=O)C1=C[C@]2(CC1)CCN(C(=O)c1ccc(NC(=O)c3ccccc3-c3ccccc3)cc1)c1ccccc1C2 ?
Found: 0.002

Lookup: Same read-out for CCCCOc1ccc(C(=O)N2CCC3(C=CCCC3)Cc3ccccc32)cc1 (stereo not drawn) ?
Found: 0.104

Lookup: Would you kindly repeat that for O=C(NCCN1CCCCC1)C1=CC2(CC1)CCN(C(=O)c1ccc(NC(=O)c3ccccc3F)cc1)c1ccccc1C2 (stereo not drawn) ?
Found: 0.95

Lookup: Next compound up: COc1ccc(C(=O)N2CCC3(C=CCCC3)Cc3ccccc32)cc1 (stereo not drawn)
Found: 0.096

----------
experimental-target: human V2 receptor (Homo sapiens)
protocol-summary: In-vitro receptor binding assay (3H-arginine-8-vasopressin), V2
cond: @ 0.1 μM; read-out: Receptor Binding V2 (% Inh. @ concentration in μM)
Returns the class for an entry based on its inhibition at 0.1 µM. Class ranges: Low = under 20%, Medium = from 20% up to 40%, High = 40% and over

These solved cases illustrate the format of a correct answer.
compound	cat
O=C(Nc1ccc(C(=O)N2Cc3ccccc3CC3(C=CCCC3)C2)cc1)c1ccccc1F (stereo not shown)	Medium
Cc1ccc(F)cc1C(=O)Nc1ccc(C(=O)N2CCC3(C=C(CN4CCN(c5ccncc5)CC4)CC3)Cc3ccccc32)c(Cl)c1 (stereo not shown)	High
COc1cc(NC(=O)c2ccccc2F)ccc1C(=O)N1CCC2(C=CCCC2)Cc2ccccc21 (stereo not shown)	Medium
COC(=O)C1=CC2(CC1)CCN(C(=O)c1ccc(NC(=O)c3ccccc3F)cc1)c1ccccc1C2 (stereo not shown)	Medium
COC(=O)C1=CC2(CC1)CCN(C(=O)c1ccc(N)cc1)c1ccccc1C2 (stereo not shown)	Low

Lookup: Determine which band this compound sits in: Cc1ccc(F)cc1C(=O)Nc1ccc(C(=O)N2CCC3(C=C(C=O)CC3)Cc3ccccc32)c(Cl)c1 (stereo not shown)
Found: High
